# method notes: molar heat capacity at constant pressure
# test context: 283.15 K; 2000 kPa; Liquid; Small sample (50 mg) DSC
property name: molar heat capacity at constant pressure (J/K/mol)
Give the quantity in J/K/mol, number only.

compound	meas value
CCCCCCn1cc[n+](C)c1.F[B-](F)(F)F [1-hexyl-3-methylimidazolium tetrafluoroborate]	422.81
CCCCCCCC[n+]1ccn(C)c1.F[B-](F)(F)F [1-methyl-3-octylimidazolium tetrafluoroborate]	489.23
CCCCn1cc[n+](C)c1.F[B-](F)(F)F [1-butyl-3-methylimidazolium tetrafluoroborate]	360.28

Okay, next one:
Data request: Which molar heat capacity at constant pressure reading was recorded for the compound CCn1cc[n+](C)c1.F[B-](F)(F)F [1-ethyl-3-methylimidazolium tetrafluoroborate] ?
Data returned: 300.22

* * *

# method notes: molar heat capacity at constant pressure
# test context: 288.15 K; 30000 kPa; Liquid; Small sample (50 mg) DSC
property name: molar heat capacity at constant pressure (J/K/mol)
Hi! Could you send only the number? It should be in J/K/mol, unit omitted.

Data request: May I ask what molar heat capacity at constant pressure has been recorded for CCCCCCn1cc[n+](C)c1.F[B-](F)(F)F [1-hexyl-3-methylimidazolium tetrafluoroborate] ?
Data returned: 425.63

Data request: Same read-out for CCCCCCCC[n+]1ccn(C)c1.F[B-](F)(F)F [1-methyl-3-octylimidazolium tetrafluoroborate] ?
Data returned: 493.1

Data request: Now the same for CCn1cc[n+](C)c1.F[B-](F)(F)F [1-ethyl-3-methylimidazolium tetrafluoroborate]
Data returned: 302.1

Data request: Moving on to the next compound: CCCCn1cc[n+](C)c1.F[B-](F)(F)F [1-butyl-3-methylimidazolium tetrafluoroborate]
Data returned: 362.52

* * *

# method notes: molar heat capacity at constant pressure
# test context: 303.15 K; 60000 kPa; Liquid; Small sample (50 mg) DSC
property name: molar heat capacity at constant pressure (J/K/mol)
Write the answer as a number in J/K/mol, unit excluded.

compound	molar heat capacity at constant pressure / J/K/mol
CCCCCCCC[n+]1ccn(C)c1.F[B-](F)(F)F [1-methyl-3-octylimidazolium tetrafluoroborate]	503.38
CCn1cc[n+](C)c1.F[B-](F)(F)F [1-ethyl-3-methylimidazolium tetrafluoroborate]	307.52
CCCCCCn1cc[n+](C)c1.F[B-](F)(F)F [1-hexyl-3-methylimidazolium tetrafluoroborate]	433.46

Attention now turns to another entry.
Data request: Look at this compound and give its reported molar heat capacity at constant pressure. CCCCn1cc[n+](C)c1.F[B-](F)(F)F [1-butyl-3-methylimidazolium tetrafluoroborate]
Data returned: 368.77

* * *

# method notes: molar heat capacity at constant pressure
# test context: 308.15 K; 100 kPa; Liquid; Small sample (50 mg) DSC
property name: molar heat capacity at constant pressure (J/K/mol)
State the answer as a number, implicitly in J/K/mol.

Study these solved cases before continuing.
compound	molar heat capacity at constant pressure (J/K/mol)
CCCCn1cc[n+](C)c1.F[B-](F)(F)F [1-butyl-3-methylimidazolium tetrafluoroborate]	370.45
CCCCCCCC[n+]1ccn(C)c1.F[B-](F)(F)F [1-methyl-3-octylimidazolium tetrafluoroborate]	506.55
CCn1cc[n+](C)c1.F[B-](F)(F)F [1-ethyl-3-methylimidazolium tetrafluoroborate]	308.36

Moving on to the next compound.
Data request: Data request, read-out molar heat capacity at constant pressure, for CCCCCCn1cc[n+](C)c1.F[B-](F)(F)F [1-hexyl-3-methylimidazolium tetrafluoroborate]
Data returned: 435.03
